test system: Saccharomyces cerevisiae BY4741 SeMeCo community; assay: z-score of subpopulation abundance vs DMSO median, subpopulation auxotrophic for LM; higher = larger share of this subpopulation than in DMSO controls; conditions: 10 µM; 24 h; SM minimal medium; subpopulation (auxotrophy): LM
Structures can show the parent of a compound that is named as a salt.
Mark -1 for z-score of subpopulation abundance values under 0, and 1 for everything at or above.

CS(=O)(=O)Nc1ccc([N+](=O)[O-])cc1Oc1ccccc1 [Nimesulide]    1

Incoming: Determine whether this compound has z-score of subpopulation abundance no lower than 0: CCn1cc(C(=O)O)c(=O)c2cc(F)c(N3CCNCC3)cc21
Outgoing: 1

Incoming: Next up: Fc1ccc([C@@H]2CCNC[C@H]2COc2ccc3c(c2)OCO3)cc1 [Paroxetine mesylate]
Outgoing: -1

Incoming: Would you kindly repeat that for Cc1ccc(S(=O)(=O)NC(=O)NN2CC3CCCC3C2)cc1 (stereo unspecified) [Gliclazide] ?
Outgoing: -1

Incoming: What about C[C@H](NCc1ccc(OCc2cccc(F)c2)cc1)C(N)=O [Safinamide] ?
Outgoing: 1

Incoming: Now this one: Cc1ncc([N+](=O)[O-])n1CCOC(=O)c1ccccc1 [Metronidazole Benzoate]
Outgoing: -1

Incoming: Also check CS(=O)(=O)c1ccc([C@@H](O)[C@@H](CO)NC(=O)C(Cl)Cl)cc1
Outgoing: -1

Incoming: Input OCCN1CCN(CC/C=C2/c3ccccc3Sc3ccc(C(F)(F)F)cc32)CC1 [Flupenthixol dihydrochloride]
Outgoing: 1

Incoming: Query CC[C@H]1OC(=O)[C@H](C)[C@@H](O[C@H]2C[C@@](C)(OC)[C@@H](O)[C@H](C)O2)[C@H](C)[C@@H](O[C@@H]2O[C@H](C)C[C@H](N(C)C)[C@H]2O)[C@](C)(O)C[C@@H](C)C(=O)[C@H](C)[C@H]2OC(=O)O[C@@]21C [Erythromycin Cyclocarbonate] next
Outgoing: 1

Incoming: Item: CC(C)[C@H](N)C(=O)OCC(CO)OCn1cnc2c(=O)[nH]c(N)nc21 (stereo partly specified) [Valganciclovir HCl]
Outgoing: -1

----------
system: Saccharomyces cerevisiae BY4741 SeMeCo community; test: z-score of subpopulation abundance vs DMSO median, subpopulation auxotrophic for M; higher = larger share of this subpopulation than in DMSO controls; details: 10 µM; 24 h; SM minimal medium; subpopulation (auxotrophy): M
Counter-ions that a name gives are not always drawn.
Quick rule for you: z-score of subpopulation abundance at 1 or higher means Yes, lower means No.

Worked examples follow.
CC[C@@]1(O)C(=O)OCc2c1cc1n(c2=O)Cc2cc3cc(O)ccc3nc2-1 [Hydroxy Camptothecine]    Yes
COc1ncnc(NS(=O)(=O)c2ccc(N)cc2)c1OC [Sulfadoxine]    No
CN1[C@@H]2CC[C@H]1C[C@@H](OC(=O)c1c[nH]c3ccccc13)C2 [Tropisetron]    Yes

Incoming: Identify whether the reported z-score of subpopulation abundance of the following molecule is 1 or greater: CNCCCN1c2ccccc2CCc2ccccc21 [Desipramine Hydrochloride]
Outgoing: Yes

Incoming: Here is the next molecule: Cc1c(-c2ccc(O)cc2)n(Cc2ccc(OCCN3CCCCCC3)cc2)c2ccc(O)cc12 [Bazedoxifene HCl]
Outgoing: No

Incoming: Next molecule up: O=C1CC2(CCCC2)CC(=O)N1CCCCN1CCN(c2ncccn2)CC1 [Buspirone HCl]
Outgoing: No

Incoming: Try this molecule too: CCCCc1oc2ccc(NS(C)(=O)=O)cc2c1C(=O)c1ccc(OCCCN(CCCC)CCCC)cc1 [Dronedarone HCl]
Outgoing: No
